- Tested on: canine cardiac myofibrillar Ca++-dependent Mg++-ATPase
- assay_comment: Measurement of myofibrillar Ca++-dependent Mg++-ATPase activity on canine cardiac myofibrils
- Format: biochemical
- study_conditions: 30 μM; pCa=5.47; pH 7.0, 21° C.
Below: a set of entries, each annotated with reported max (percent change of maximal ATPase activity).
readout: max (percent change of maximal ATPase activity) (%)

{"columns": ["molecule", "value"],
 "data": [
  ["CC1SC(=O)NN=C1c1ccc2c(c1)C(=C(C#N)C#N)C(=O)N2 (centres unmarked)", -20],
  ["CC1SC(=O)NN=C1c1ccc2c(c1)C(=Cc1ccccc1)C(=O)N2 (centres unmarked)", -13],
  ["CC1SC(=O)NN=C1c1ccc2c(c1)C(=Cc1ccccc1[N+](=O)[O-])C(=O)N2 (centres unmarked)", 1],
  ["CC1SC(=O)NN=C1c1ccc2c(c1)C(=NNC1CCCCC1)C(=O)N2 (centres unmarked)", 22]
]}
